# measured-target: DPPIV (Mus musculus, UniProt P28843)
# Construct: The plasma was transferred to a 96-well assay plate for the DPPIV assay; from tissue; host or cells: pooled heparinized whole blood of ICR mice; plasma isolated after incubation
# Sequence (P28843 37-760 limits assumed): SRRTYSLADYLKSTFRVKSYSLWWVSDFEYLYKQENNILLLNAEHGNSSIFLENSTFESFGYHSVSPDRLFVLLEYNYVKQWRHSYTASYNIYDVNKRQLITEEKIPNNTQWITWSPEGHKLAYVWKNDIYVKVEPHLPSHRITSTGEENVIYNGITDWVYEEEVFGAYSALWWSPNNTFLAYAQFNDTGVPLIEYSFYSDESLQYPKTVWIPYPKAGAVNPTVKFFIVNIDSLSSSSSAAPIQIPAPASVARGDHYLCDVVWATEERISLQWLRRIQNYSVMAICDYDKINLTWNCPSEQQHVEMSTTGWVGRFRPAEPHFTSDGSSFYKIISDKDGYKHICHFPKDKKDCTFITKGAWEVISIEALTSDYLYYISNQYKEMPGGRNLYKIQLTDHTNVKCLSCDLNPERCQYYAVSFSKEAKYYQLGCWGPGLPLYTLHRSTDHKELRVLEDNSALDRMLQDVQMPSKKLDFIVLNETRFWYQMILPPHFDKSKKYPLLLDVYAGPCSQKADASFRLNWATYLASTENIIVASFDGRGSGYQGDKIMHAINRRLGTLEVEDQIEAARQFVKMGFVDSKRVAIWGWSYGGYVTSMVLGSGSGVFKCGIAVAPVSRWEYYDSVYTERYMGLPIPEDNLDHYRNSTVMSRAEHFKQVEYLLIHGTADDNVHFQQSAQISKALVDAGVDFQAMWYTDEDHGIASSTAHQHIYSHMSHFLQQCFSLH
# test-method-notes: Plasma DPPIV activity assay with mouse blood
# Assay type: biochemical
# conditions-used: peptide 0.82 mM in mouse blood, 2 h at 37° C.; relative to saline control set to 100%
Where no end group is shown, it is not given here.
observed-property: % DPPIV Activity (Saline) (%)
Response body: numeric value in %, unit text excluded.

73 (SPVIRH-NH2) [compound 73] ... 66
51 (Arg-Val-Pro-NH2) [compound 51] ... 70
45 (KPARVPS; IMMUNOLOGICAL PEPTIDE) [compound 45] ... 27
11 (RAVPA; IMMUNOLOGICAL PEPTIDE) [compound 11] ... 39

I have this substance here, 88 (Gly-Val-Pro-NH2) [compound 88] , and I need its recorded % DPPIV Activity (Saline).
69

And then 3 (SRIVPA; IMMUNOLOGICAL PEPTIDE) [compound 3] , what is it?
60

Field entry: 53 (GLKHPS-NH2) [compound 53]
68

Quick one: 85 (Ser-Val-Pro-NH2) [compound 85]
71

Repeat with 52 (PSVPGS-NH2) [compound 52]
74

Repeat with 54 (RIVPAIPVSLL-NH2) [compound 54]
4

Repeat with 1 (KSRIVP; IMMUNOLOGICAL PEPTIDE) [compound 1]
76

Query 87 (Arg-Arg-Pro-NH2) [compound 87] next
72

Moving on to the next substance: 47 (KPRAVP; IMMUNOLOGICAL PEPTIDE) [compound 47]
52
